Source of measurements: PubChem BioAssay

Catalogue of composite z-score readings, one per entry.
Biological target: Calmodulin-1 (Homo sapiens)
Assay: small molecules binding calmodulin-1 with EGTA – biochemical, small-molecule microarray, Cy5-labelled CALM1, profiling panel (AID 1111);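 also: labelled calmodulin applied in Tris saline Tween buffer holding calcium plus EGTA and DTT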
Conditions: Cy5-CALM1 binding fluorescence, higher = more signal

{"columns": ["COMPOUND", "composite z-score"],
 "data": [
  ["C=CC[C@@]1(C(N)=O)N=C(c2ccc(OCCCO)cc2)O[C@@H]1c1ccccc1N=[N+]=[N-]", -0.151],
  ["COC(=O)[C@@]1(Cc2ccccc2)[C@H]2c3cc(C(=O)N(C)C)n(Cc4cc(F)c(F)c(F)c4)c3C[C@H]2CN1C(=O)c1ccccc1", 1.39],
  ["C=CCC(OC(C)=O)[C@@H]1[C@@H](N(Cc2cc3ccccc3o2)C(=O)c2ccc(C)cc2)c2cc(OCCCO)ccc2N1C(=O)c1ccc(-c2ccccc2)cc1 (some centres not stated)", -0.259],
  ["O=C(NCC(O)CO)[C@@]1(Cc2ccccc2)COC(c2ccc(OCCCO)cc2)=N1 (some centres not stated)", 0.77],
  ["COCCOC(=O)N1C(=O)[C@@]2(c3cc(C#CC4(O)CCCCCC4)ccc31)[C@H](c1ccc(O)cc1)N1[C@H](c3ccccc3)[C@H](c3ccccc3)OC(=O)[C@H]1[C@@H]2C(=O)N1CCc2cc(OC)c(OC)cc2C1", -0.548],
  ["COc1ccc([Si](C)(C)[C@H]2[C@H](CC(=O)N3CCC[C@H]3CO)O[C@@]3(C(=O)N(c4ccccc4)c4ccccc43)[C@@H]2C)cc1", -0.363],
  ["COC(=O)c1c(CC[C@@H](CO)NC(=O)Nc2ncn[nH]2)oc(C(=O)Cc2ccccc2)c1C(=O)OC", 0.0262],
  ["O=c1cccc(-c2cccc3ccccc23)o1", 0.088],
  ["O[C@@H](Cc1ccccc1)[C@@H](/C=C/c1ccccc1)NCc1ccccc1Br", -0.793],
  ["C=CCNC(=O)[C@H]1[C@@H]2C(=O)O[C@@H](c3ccccc3)[C@@H](c3ccccc3)N2[C@@H](c2ccc(O)cc2)[C@]12C(=O)Nc1ccc(C#Cc3ccc(OC)cc3)cc12", 0.664],
  ["O=C1O[C@H](c2ccccc2)[C@H](c2ccccc2)N2[C@H]1[C@@H](C(=O)Nc1nc3ccccc3s1)[C@]1(C(=O)Nc3ccc(C#CC4=CCCCC4)cc31)[C@H]2c1ccc(OCCO)cc1", 1.36],
  ["COC(=O)[C@@]1(Cc2ccc(F)cc2)[C@H]2c3cc(C(=O)N(C)C)n(CCCNc4ccc(C(F)(F)F)cc4Cl)c3C[C@H]2CN1C(=O)c1ccccc1", 2.36],
  ["Cc1ccc([C@H]2C(C(=O)O)=C[C@@H](C(C)C)N2S(=O)(=O)c2ccc(C)cc2)cc1", 0.995],
  ["CCOC(=O)C1=CC[C@@H](c2ccccc2)N(S(=O)(=O)c2ccc(C)cc2)[C@H]1c1ccc(C#N)cc1", 1.95],
  ["O=C1OCCC/C=C\\[C@H]2OC34C=CCN(Cn5nnc6ccccc65)C(=O)[C@H]3N(CCCO)C(=O)[C@@H]4C12 (some centres not stated)", -0.44],
  ["C=C[C@H](C)[C@H](O)c1ccc(OCCO)cc1", -0.215],
  ["NC(=O)NCC#Cc1ccc2c(c1)[C@]1(C(=O)N2)[C@H](c2ccc(O)cc2)N2[C@H](c3ccccc3)[C@H](c3ccccc3)OC(=O)[C@H]2[C@@H]1C(=O)N1CCN(c2ncccn2)CC1", 0.301],
  ["C=CC[C@@]1(C(=O)NCCN2CCOCC2)N=C(c2ccc(OCCCO)cc2)O[C@@H]1c1ccccc1CN=[N+]=[N-]", 1.42],
  ["C=C(COC)C(=O)CC[C@@H](OC(=O)c1ccccc1-c1ccccc1C(=O)O)c1ccc(CO)o1", 1.63],
  ["[N-]=[N+]=NCc1ccccc1[C@H]1OC(c2ccc(OCCCO)cc2)=N[C@@]1(Cc1ccccc1)C(=O)NCC(O)CO (some centres not stated)", 1.52],
  ["[N-]=[N+]=Nc1ccccc1C[C@]1(C(=O)N2CCCCC2)N=C(c2ccc(OCCCO)cc2)O[C@H]1c1ccccc1N=[N+]=[N-]", 1.46],
  ["CN(C)CCCC[C@@H]1NC(=O)[C@@H]2C[C@H](C(=O)NCc3ccc(F)cc3)[C@H](c3cccc(OCCO)c3)N2C1=O", 0.337]
]}
